Target: T1, Human complement Factor D, mature (human, UniProt P00746 27-253)
T1 construct: In the TR-FRET assay the factor D was bought from Complement Technology; In the hemolysis assay it was the factor D of C1q-depleted human serum; also called human Factor D; hFD
T1 sequence (P00746 27-253): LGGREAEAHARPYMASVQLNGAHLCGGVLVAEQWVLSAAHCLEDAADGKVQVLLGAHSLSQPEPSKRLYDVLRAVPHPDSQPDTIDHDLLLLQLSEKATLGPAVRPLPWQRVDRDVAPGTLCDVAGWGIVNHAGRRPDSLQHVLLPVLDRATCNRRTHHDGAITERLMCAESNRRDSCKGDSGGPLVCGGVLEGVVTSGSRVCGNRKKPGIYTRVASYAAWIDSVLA
Assay: SPR (Biacore T200): Fab captured with anti-huFab kit, human Factor D injected, 25 C, 1:1 model;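 note: sensorgrams were corrected by subtracting a blank injection of running buffer before fitting kinetic and affinity constants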
Measurement type: kon (M⁻¹ s⁻¹)
Response body: numeric value in M⁻¹ s⁻¹, unit text excluded.

Binder	kon / M⁻¹ s⁻¹
hu20D12.v2.3 Fab (Fab, V domains shown) VH: EVQLVQSGAEVKKPGASVKVSCKASGYTFTSYYMYWVRQAPGQGLEWIGEINPYSGDTNFNEKFKSRATLTVDTSTSTAYLELSSLRSEDTAVYYCAREGGFAYWGQGTLVTVSS VL: DIQMTQSPSSLSASVGDRVTITCKASQNVDTDVAWFQQKPGKAPKGLIRSASSRYSGVPSRFSGSGSGTDFTLTISSLQPEDFATYYCQQYNNYPLTFGQGTKVEIKR	1.2e+07

Kindly consider the entry below.
Q: What does the data say about its kon? Entry: hu20D12.v2.12 Fab (Fab, V domains shown) VH: EVQLVQSGAEVKKPGASVKVSCKASGYTFTSYYMYWVRQAPGQGLEWIGEINPYSGGTNFNEKFKSRATLTVDTSTSTAYLELSSLRSEDTAVYYCAREGGFAYWGQGTLVTVSS VL: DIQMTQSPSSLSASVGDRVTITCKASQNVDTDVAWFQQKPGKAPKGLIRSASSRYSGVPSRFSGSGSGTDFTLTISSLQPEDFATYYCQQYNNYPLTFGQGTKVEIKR
Result: 1.8e+07
